Origin of measurements: patent US9193673B2

test: In vivo pharmacokinetic in the rat after i.v. and p.o. administration of compound (IV)
conditionDescription: rat, plasma, po, 50 mg/kg, compound (IV) oral gavage 50 mg/kg, rat, mean; read-out: Tmax Mean (converted)

smilesInput | Tmax [min]
CCCC(=O)Oc1ccc(N)cc1C(=O)O.Cl | 16.7

----------
test: In vivo pharmacokinetic in the rat after i.v. and p.o. administration of compound (IV)
conditionDescription: rat, plasma, iv, 5 mg/kg, compound (IV) i.v. 5 mg/kg, rat, individual rats; read-out: Cl

compound | clearance [mL/min/kg]
CCCC(=O)Oc1ccc(N)cc1C(=O)O.Cl [Compound (IV), 5-amino-2-(butyryloxy)benzoic acid] | 210
